test system: EKVX NSCLC; assay: NCI tumour cell line growth inhibition, 48 h

# molecule, TGI
measured = [
    ("O=C(COc1ccc(OCC(=O)N2C(=O)CN(c3ccccc3)C2=S)cc1)N1C(=O)CN(c2ccccc2)C1=S", "> 100 µM"),
    ("N#Cc1ncn(CCO)c1N", "> 100 µM"),
    ("CC(C)N(C(=O)C12C3C4C1C1C2C3C41I)C(C)C (stereo unspecified)", "> 100 µM"),
    ("N#Cc1ccccc1C#C/C=C\\C#Cc1ccccc1N", "> 57.3 µM"),
    ("N#C/C(=C\\c1cc(O)ccc1O)C(N)=O", "> 100 µM"),
    ("c1ccc(-c2c3c(nc4c2CC[C@H]4NC2=NCCN2)[C@@H](NC2=NCCN2)CC3)cc1", "> 100 µM"),
    ("COc1cc(C2c3[nH]c4ccccc4c3[C@@H](Nc3ccc(C#N)cc3)[C@H]3COC(=O)N23)cc(OC)c1O (stereo partly specified)", "4.32 µM"),
    ("COc1cccc2nc3ccccc3nc12", "> 100 µM"),
    ("CCOC(=O)c1nc2ccccc2nc1Nc1ccc(OC)cc1", "> 100 µM"),
    ("CSc1nn(C)cc2nc(C)nc1-2", "> 100 µM"),
    ("CSC1=C(C(=O)Nc2ccc(C)cc2)C(N)=NC1=O", "> 100 µM"),
    ("CC1(C)S[C@H](CN)N[C@H]1C(=O)OC(c1ccccc1)c1ccccc1", "> 100 µM"),
    ("NC(=O)NNCc1c(-c2ccccc2)no[n+]1[O-]", "> 100 µM"),
    ("CCN(CC)CCC(CNc1ccnc2cc(Cl)ccc12)c1ccccc1 (stereo unspecified)", "> 100 µM"),
    ("CC(=O)[CH-]C(=O)c1ccccc1.CC(=O)[CH-]C(=O)c1ccccc1.CC(C)CCC[C@H](C)C1CCC2[C@@H]3CC=C4C[C@@H]([O-])CC[C@]4(C)C3CC[C@@]21C.CC(C)CCC[C@H](C)C1CCC2[C@@H]3CC=C4C[C@@H]([O-])CC[C@]4(C)C3CC[C@@]21C.Cl.[Ti+4] (stereo partly specified)", "> 25 µM"),
    ("COc1cc(COC(=O)N2CC=CC2C(=O)O)c([N+](=O)[O-])cc1OC (stereo unspecified)", "> 100 µM"),
    ("COc1cc(/C=N/c2ccccn2)cc(OC)c1OC", "> 100 µM"),
    ("OC(Cc1ccc2ccccc2n1)(C(F)(F)Cl)C(F)(F)Cl", "> 10 µM"),
    ("COc1ccc(-c2ccccc2)c2[nH]c3c(c12)CCNC3=O", "> 100 µM"),
    ("O=C(c1ccccc1)c1ccc2c(c1)nc1n2C(c2c(F)cccc2F)SC1 (stereo unspecified)", "84.5 µM"),
    ("CCN1CCN(c2nc3ccccc3nc2C(=O)c2ccc(OC)c(OC)c2)CC1", "57.4 µM"),
]

Each recorded value in this set is attributed to PubChem BioAssay (NCI).
